src = the supplement of paper PMC10567573

B1: ZMYND11 (parent)
chain: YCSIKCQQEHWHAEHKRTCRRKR

- Variants of: B1
- Procedure Summary: protein stability index of a GFP-peptide fusion (GPS, HEK-293T) (PSI 1-6); higher = more stable;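 note: lentivirally expressed fusions sorted by FACS into six bins by GFP to DsRed ratio, PSI derived from sequencing read proportions per bin multiplied by bin number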
- Experimental Context: c terminus: native
Provide the reported protein stability index of each item.

Example cases with answers are listed next.
{"columns": ["Mutant Code", "protein stability index"],
 "data": [
  ["H15I", 1.95],
  ["H15Y", 2.01],
  ["Q7A", 2.36],
  ["Q8E", 2.34],
  ["Q8C", 2.51]
]}

Please state protein stability index for every variant in the list that follows.
1. H15K
2. K16Q
3. H15E
4. K5G
5. I4V
6. Q7I

[2.01, 2.34, 2.79, 2.09, 2.51, 2.44]
